Parameter threshold = 100 °C. Response is class 1 when melting point meets or exceeds it, else class 0.

Solved cases below.
CCC1(C2=CCCCCC2)C(=O)NC(=O)NC1=O; class 1
CSC(=O)c1cccc2nnsc12; class 1
C=CCC1(C(C)C)C(=O)NC(=O)N(C)C1=O (stereo not given); class 0
Clc1ccccc1Br; class 0
Fc1cc(F)c(F)c(F)c1F; class 0
O=Cc1c(F)c(F)c(F)c(F)c1F; class 0
O=CNC(O)C(Cl)(Cl)Cl (stereo not given); class 1
CCOC(=O)Cn1c(=O)sc2cccc(Cl)c21; class 0
Cl/C=C\Cl; class 0
O=P([O-])([O-])O[C@@H]1[C@@H](O)[C@H](O)[C@@H](O)[C@H](O)[C@@H]1O; class 1

Moving on to the next molecule.
Query :: Tell me whether melting point is at least 100 °C here: CC(C)(C)c1cc(O)c(C(C)(C)C)cc1O
Result :: class 1
